# credit: the supplement of paper PMC10981050

Test system: OCI-AML2;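 also: after 48 h exposure read by CellTiter-Glo luminescence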
Assay: cell viability relative to vehicle control; higher = less cytotoxic
Settings: 10 µM; SRSF2 genotype: P95H/wt
Structures can show the parent of a compound that is named as a salt.
measured_endpoint: cell viability (%)
Just the number please, in %, no unit attached.

Examples from the recorded data:
| compound | cell viability / % |
| --- | --- |
| CC(C)NC[C@H](O)COc1ccc(CCOCC2CC2)cc1 [Levobetaxolol HCl] | 79.4 |
| CC(O)COCC1OC2OC3C(COCC(C)O)OC(OC4C(COCC(C)O)OC(OC5C(COCC(C)O)OC(OC6C(COCC(C)O)OC(OC7C(COCC(C)O)OC(OC8C(COCC(C)O)OC(OC1C(O)C2O)C(O)C8O)C(O)C7O)C(O)C6O)C(O)C5O)C(O)C4O)C(O)C3O (centres undefined) | 108 |
| CCCCCOc1ccc(-c2ccc(-c3ccc(C(=O)N[C@H]4C[C@@H](O)[C@@H](O)NC(=O)[C@@H]5[C@@H](O)[C@@H](C)CN5C(=O)[C@H]([C@@H](C)O)NC(=O)[C@H]([C@H](O)[C@@H](O)c5ccc(O)cc5)NC(=O)[C@@H]5C[C@@H](O)CN5C(=O)[C@H]([C@@H](C)O)NC4=O)cc3)cc2)cc1 | 77.5 |
| CC(=O)OCC1=C(C(=O)O)N2C(=O)C(NC(=O)CSC(=NC(C)C)NC(C)C)C2SC1 (centres undefined) [Cefathiamidine] | 102 |
| Cc1[nH]c2ccccc2c1CCNC(=O)c1cccs1 | 94.5 |
| CC1Cc2ccccc2N1NC(=O)c1ccc(Cl)c(S(N)(=O)=O)c1 (centres undefined) [Indapamide (Lozol)] | 114 |

Q) Entry O=C(O)CNC(=O)c1ccccc1 [Hippuric acid] , system OCI-AML2: what cell viability was measured?;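 also: after 48 h exposure read by CellTiter-Glo luminescence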
A) 103

Q) Entry to check: CS(=O)(=O)c1ccc(-c2cnc(N)c(C(=O)Nc3ccccc3)n2)cc1
A) 98.9

Q) Entry to check: Cn1cnc([N+](=O)[O-])c1Sc1ncnc2[nH]cnc12 [Azathioprine (Azasan, Imuran)]
A) 87.7
